// values below are reported melting point

Solved cases below.
{"COMPOUND": "O=C1CCN(C(=O)C(Cc2ccccc2)NC(=O)c2cc3cc(Cl)ccc3[nH]2)CC1 (stereo unspecified)", "melting point": "258 to 261 °C"}
{"COMPOUND": "CSc1c(NCc2ccncc2)cnn(C(C)(C)C)c1=O", "melting point": "107 to 110 °C"}
{"COMPOUND": "Cc1cc(O)c2cccc(OCc3ccccc3)c2n1", "melting point": "155 to 164 °C"}

(Q) GET /values?readout=melting point&item= CCOC(=O)c1cc(NC(=O)C(Cc2ccc(Cl)c(Cl)c2)NC(=O)OC(C)(C)C)c[nH]1 (stereo unspecified)
(A) 175 to 185 °C

(Q) GET /values?readout=melting point&item= COC(=O)NN=C1CCCCCC1
(A) 75 °C

(Q) GET /values?readout=melting point&item= Clc1cc(Oc2cc(Cl)nc(-c3ccc(Cl)s3)n2)ccn1
(A) 154 to 156 °C

(Q) GET /values?readout=melting point&item= NNC(=O)c1cn2ccccc2n1
(A) 195 to 198 °C

(Q) GET /values?readout=melting point&item= Nc1c(F)c(N2CCC(C(N)c3ccccn3)C2)c(F)c2c1c(=O)c(C(=O)O)cn2C1CC1F (stereo unspecified)
(A) 178 to 180 °C

(Q) GET /values?readout=melting point&item= COC(=O)c1c(C)nc(-c2ccccc2)nc1-c1cccc(OC(F)F)c1
(A) 62 to 63 °C

(Q) GET /values?readout=melting point&item= CC(O)C1CCCCCCCCCCC1 (stereo unspecified)
(A) 35 °C

(Q) GET /values?readout=melting point&item= CN1CCC(=O)N(c2cccc3ccccc23)C1=O
(A) 228 to 229 °C

----------
OBSERVED PROPERTY: melting point

Solved cases below.
{"COMPOUND": "Clc1cccc(/C=C/C2=CCN(Cc3c[nH]c4ncccc34)CC2)c1", "melting point": "208 to 210 °C"}
{"COMPOUND": "CN(CCc1ccc(NS(C)(=O)=O)cc1)Cc1ccc2cc(NS(C)(=O)=O)ccc2n1", "melting point": "165 to 166 °C"}
{"COMPOUND": "CN(C#N)C1CN(C(=O)Nc2ccc(C(F)(F)F)cc2)N=C1c1ccc(Cl)cc1 (centres undefined)", "melting point": "216 to 217 °C"}
{"COMPOUND": "CCc1cn(C2CC(O)C(CSCc3ccccc3)O2)c(=O)[nH]c1=O (centres undefined)", "melting point": "149 to 151 °C"}
{"COMPOUND": "CN(C)Cc1ccc(CSCCNC(=C[N+](=O)[O-])NCCCCCCCCCCCCNC(=C[N+](=O)[O-])NCCSCc2ccc(CN(C)C)o2)o1", "melting point": "74 to 76 °C"}
{"COMPOUND": "COc1ccc2c(c1)c(=O)oc1c(C(C)=O)c(O)ccc12", "melting point": "197 to 199 °C"}

(Q) GET /values?readout=melting point&item= Cc1nnc2n1-c1ccc([N+](=O)[O-])cc1C(c1ccccc1Cl)=NC2
(A) 231 to 233 °C

(Q) GET /values?readout=melting point&item= CCOC(=O)c1nn(-c2ccc(Cl)cc2Cl)c(-c2ccc(Br)cc2)c1CBr
(A) 116 °C

(Q) GET /values?readout=melting point&item= CCCN(CCC)C(=O)c1cc(C(=O)O)cc(-c2ncco2)c1
(A) 131 to 133 °C

Each recorded value in this set is attributed to a melting point compilation (Tetko et al.; mined from patent text by program, amines drawn as free bases though some values may be those of a salt).
